# credit: patent US7145009B2

- target.desc: human 5-HT2B receptors in a CHO cell line (Homo sapiens, UniProt P41595)
- Sequence (P41595 whole entry): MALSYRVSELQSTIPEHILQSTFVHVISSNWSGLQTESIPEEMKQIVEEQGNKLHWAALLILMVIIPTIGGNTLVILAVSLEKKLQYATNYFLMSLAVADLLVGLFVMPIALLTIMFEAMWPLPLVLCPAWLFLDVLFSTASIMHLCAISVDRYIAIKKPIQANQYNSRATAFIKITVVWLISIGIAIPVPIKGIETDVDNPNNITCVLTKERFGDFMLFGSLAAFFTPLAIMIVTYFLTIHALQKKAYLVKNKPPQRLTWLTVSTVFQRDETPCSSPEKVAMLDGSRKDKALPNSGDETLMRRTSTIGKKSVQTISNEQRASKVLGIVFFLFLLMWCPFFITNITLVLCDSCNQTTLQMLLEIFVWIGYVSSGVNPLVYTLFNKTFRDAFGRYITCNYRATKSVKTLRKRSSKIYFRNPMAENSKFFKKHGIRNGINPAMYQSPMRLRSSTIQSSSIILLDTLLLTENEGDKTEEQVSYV
- assay.comment: Binding to 5-HT2B receptor, [3H]-5-HT, Method (b)
- experimental.setup: read-out: Ki (2B)
Where a name gives a salt, the structure may show the parent alone.
assay.metric: Ki (nM)
Number only, in nM; omit the unit.

[Q] Quote Ki with test system human 5-HT2B receptors in a CHO cell line (Homo sapiens, UniProt P41595) for Clc1ccc2c(c1)N1CCNCC1C2 (racemic) [Example 1, hydrochloride]
[A] 32

---

- target.desc: h5-HT2C receptor (CHO cells) (Homo sapiens, UniProt P28335)
- Construct: expressed in transfected cells; host or cells: CHO cells
- Sequence (P28335 33-458): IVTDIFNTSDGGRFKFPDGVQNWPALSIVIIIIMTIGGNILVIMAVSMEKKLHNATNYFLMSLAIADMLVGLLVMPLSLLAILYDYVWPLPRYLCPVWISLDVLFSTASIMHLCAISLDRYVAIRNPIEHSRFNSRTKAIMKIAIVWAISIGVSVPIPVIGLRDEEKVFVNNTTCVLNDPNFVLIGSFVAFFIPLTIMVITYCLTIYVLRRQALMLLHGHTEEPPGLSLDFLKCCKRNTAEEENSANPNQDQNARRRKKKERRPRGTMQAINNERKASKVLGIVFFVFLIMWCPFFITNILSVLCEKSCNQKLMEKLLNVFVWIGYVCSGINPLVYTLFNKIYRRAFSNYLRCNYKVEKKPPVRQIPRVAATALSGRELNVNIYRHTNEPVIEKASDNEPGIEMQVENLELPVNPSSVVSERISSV
- assay.comment: Functional activity, FLIPR calcium assay, h5-HT2C
- Assay type: cell-based
- experimental.setup: FLIPR, CHO cells, Fluo 3-AM; read-out: h5-HT2C EC50
Counter-ions that a name gives are not always drawn.
assay.metric: pEC50
// returns pEC50 (minus log10 of molar concentration), number only

[Q] # return recorded pEC50 for input Clc1ccc2c(c1)CC1CNCCN21 (racemic) [Example 2, hydrochloride]
[A] 6.79

[Q] # return recorded pEC50 for input Clc1cccc2c1CC1CNCCN21 (racemic) [Example 3, hydrochloride]
[A] 6.85

[Q] # return recorded pEC50 for input Clc1ccc2c(n1)N1CCNCC1C2 (racemic)
[A] 6.76
